# System: HCC1937
# assay.overview: normalised response (% of control), CellTox Green; higher = less cell death (100 = DMSO, 0 = benzethonium chloride kill control)
# test.context: incubation time: 72 h

{"molecule": "CC(C)(C)c1nc(-c2cccc(NS(=O)(=O)c3c(F)cccc3F)c2F)c(-c2ccnc(N)n2)s1 [Dabrafenib] (25 nM)", "normalised response, %": 94.8}
{"molecule": "Nc1ccn([C@@H]2O[C@H](CO)[C@@H](O)C2(F)F)c(=O)n1 [Gemcitabine] (10 nM)", "normalised response, %": 111}
{"molecule": "CC(C)C[C@H](NC(=O)[C@@H](COC(C)(C)C)NC(=O)[C@H](Cc1ccc(O)cc1)NC(=O)[C@H](CO)NC(=O)[C@H](Cc1c[nH]c2ccccc12)NC(=O)[C@H](Cc1cnc[nH]1)NC(=O)[C@@H]1CCC(=O)N1)C(=O)N[C@@H](CCCNC(=N)N)C(=O)N1CCC[C@H]1C(=O)NNC(N)=O [Goserelin] (10000 nM)", "normalised response, %": 88}
{"molecule": "CCN(CC)CCCC(C)Nc1ccnc2cc(Cl)ccc12 (stereo not drawn) [Chloroquine] (10000 nM)", "normalised response, %": 91.5}
{"molecule": "O=[N+]([O-])c1ccc2c(c1)S(=O)(=O)C=C2 [Stattic] (5000 nM)", "normalised response, %": 28.6}
{"molecule": "CO[C@@H]1[C@H](N(C)C(=O)c2ccccc2)C[C@H]2O[C@]1(C)n1c3ccccc3c3c4c(c5c6ccccc6n2c5c31)C(=O)NC4 [Midostaurin] (1000 nM)", "normalised response, %": 52.8}
{"molecule": "CC(O)(CS(=O)(=O)c1ccc(F)cc1)C(=O)Nc1ccc(C#N)c(C(F)(F)F)c1 (stereo not drawn) [Bicalutamide] (1000 nM)", "normalised response, %": 59.6}
{"molecule": "Cc1cc(Nc2nc(N[C@@H](C)c3ncc(F)cn3)ncc2Cl)[nH]n1 [AZD1480] (1000 nM)", "normalised response, %": 69.3}
{"molecule": "O=C(O)CNC(=O)c1c(O)c2ccccc2n(Cc2ccccc2)c1=O [IOX-2] (50000 nM)", "normalised response, %": 91.5}
{"molecule": "CC(O)(CS(=O)(=O)c1ccc(F)cc1)C(=O)Nc1ccc(C#N)c(C(F)(F)F)c1 (stereo not drawn) [Bicalutamide] (100 nM)", "normalised response, %": 106}
{"molecule": "CC1(COc2ccc3c(c2)ncn3-c2ccc3cccc(N4CCC(N)CC4)c3n2)COC1 [Crenolanib] (100 nM)", "normalised response, %": 80.2}
{"molecule": "CC(C)C[C@H](NC(=O)[C@@H](COC(C)(C)C)NC(=O)[C@H](Cc1ccc(O)cc1)NC(=O)[C@H](CO)NC(=O)[C@H](Cc1c[nH]c2ccccc12)NC(=O)[C@H](Cc1cnc[nH]1)NC(=O)[C@@H]1CCC(=O)N1)C(=O)N[C@@H](CCCNC(=N)N)C(=O)N1CCC[C@H]1C(=O)NNC(N)=O [Goserelin] (100 nM)", "normalised response, %": 89.5}
{"molecule": "CC[C@H](CO)Nc1nc(NCc2ccccc2)c2ncn(C(C)C)c2n1 [Seliciclib] (10000 nM)", "normalised response, %": 105}
{"molecule": "CC(C)n1cnc2c(NCCc3ccc(O)cc3)nc(-c3csc4ccccc34)nc21 [StemRegenin 1] (1000 nM)", "normalised response, %": 89.9}
{"molecule": "CN[C@@H](C)C(=O)N[C@H]1CN(C(=O)CC(C)C)CC[C@H]2CC[C@@H](C(=O)NC(c3ccccc3)c3ccccc3)N2C1=O [AT-406] (100 nM)", "normalised response, %": 95.2}
{"molecule": "CC(C)C[C@H](NC(=O)[C@@H](COC(C)(C)C)NC(=O)[C@H](Cc1ccc(O)cc1)NC(=O)[C@H](CO)NC(=O)[C@H](Cc1c[nH]c2ccccc12)NC(=O)[C@H](Cc1cnc[nH]1)NC(=O)[C@@H]1CCC(=O)N1)C(=O)N[C@@H](CCCNC(=N)N)C(=O)N1CCC[C@H]1C(=O)NNC(N)=O [Goserelin] (1000 nM)", "normalised response, %": 83.8}
{"molecule": "COc1cc(Nc2c(C#N)cnc3cc(OCCCN4CCN(C)CC4)c(OC)cc23)c(Cl)cc1Cl [Bosutinib] (1000 nM)", "normalised response, %": 110}
{"molecule": "CC1(C)CCC(c2ccc(Cl)cc2)=C(CN2CCN(c3ccc(C(=O)NS(=O)(=O)c4ccc(N[C@H](CCN5CCOCC5)CSc5ccccc5)c(S(=O)(=O)C(F)(F)F)c4)cc3)CC2)C1 [Navitoclax] (100 nM)", "normalised response, %": 67.1}

The origin of these recorded values is the supplement of paper PMC4862054.
